assay: HPLC lipophilicity on cholesterol (Chol) stationary phase
Type: physicochemical
assay setup: Table S3; MeOH 0.70 v/v in mobile phase, pH 7.4
measured property: Log k Chol

>>> print(df.to_string())
                             record_smiles  measured_property  value_measured
0      CSc1ccc(NC(=S)NNC(=O)COc2ccccc2)cc1         Log k Chol          -0.316
1       O=C(COc1ccccc1)NNC(=S)Nc1cccc(I)c1         Log k Chol          -0.165
2  O=C(COc1ccccc1)NNC(=S)Nc1ccc(Cl)c(Cl)c1         Log k Chol          -0.087

---

Listed next: entries and their corresponding Log k Chol.
assay: HPLC lipophilicity on cholesterol (Chol) stationary phase
Assay type: physicochemical
assay setup: Table S3; MeOH 0.50 v/v in mobile phase, pH 7.4
measured property: Log k Chol

>>> df
                                   molecule  measured_property  value_measured
0  O=C(COc1ccccc1)NNC(=S)Nc1cc(Cl)ccc1Cl [Compound 14]         Log k Chol           0.716
1  O=C(COc1ccccc1)NNC(=S)Nc1ccccc1F [Compound 2]         Log k Chol          -0.037
2  O=C(COc1ccccc1)NNC(=S)Nc1cccc(I)c1 [Compound 8]         Log k Chol           0.834
3  O=C(COc1ccccc1)NNC(=S)Nc1ccc(Cl)cc1Cl [Compound 13]         Log k Chol           0.627
4  CSc1ccc(NC(=S)NNC(=O)COc2ccccc2)cc1 [Compound 17]         Log k Chol           0.510
5  O=C(COc1ccccc1)NNC(=S)Nc1ccccc1I [Compound 4]         Log k Chol           0.244
6  O=C(COc1ccccc1)NNC(=S)Nc1cccc(Cl)c1 [Compound 6]         Log k Chol           0.422
7  O=C(COc1ccccc1)NNC(=S)Nc1ccc(F)cc1 [Compound 9]         Log k Chol           0.179

---

assay: HPLC lipophilicity on IAM (immobilized artificial membrane, phosphatidylcholine) stationary phase
Format: physicochemical
assay setup: Table S2; ACN 0.35 v/v in mobile phase, pH 7.4
Listed next: entries and their corresponding Log k IAM.
measured property: Log k IAM

In [3]: df
Out[3]:
                                   compound  measured_property  value_measured
0  O=C(COc1ccccc1)NNC(=S)Nc1ccc(Cl)cc1Cl [Compound 13]          Log k IAM          -0.103
1  O=C(COc1ccccc1)NNC(=S)Nc1cccc(Cl)c1 [Compound 6]          Log k IAM          -0.247
2  O=C(COc1ccccc1)NNC(=S)Nc1ccc(Cl)cc1 [Compound 10]          Log k IAM          -0.210
3  O=C(COc1ccccc1)NNC(=S)Nc1cccc(I)c1 [Compound 8]          Log k IAM          -0.074
4  O=C(COc1ccccc1)NNC(=S)Nc1ccc(Br)cc1 [Compound 11]          Log k IAM          -0.111

---

Listed next: entries and their corresponding log K AGP.
Test system: α1-acid glycoprotein (AGP)
assay: HPLC on immobilized AGP column, affinity and % plasma–protein binding
Type: in vitro ADME, human
assay setup: binding equilibrium constant from calibration curve (Equation 9) of log k AGP
measured property: log K AGP

In [3]: df
Out[3]:
                              record_smiles  value_measured
0  O=C(COc1ccccc1)NNC(=S)Nc1ccc([N+](=O)[O-])cc1          0.3508
1       O=C(COc1ccccc1)NNC(=S)Nc1cccc(Cl)c1          0.6152
2        O=C(COc1ccccc1)NNC(=S)Nc1cccc(I)c1          0.8556
3     O=C(COc1ccccc1)NNC(=S)Nc1cc(Cl)ccc1Cl          0.8829
4   O=C(COc1ccccc1)NNC(=S)Nc1ccc(Cl)c(Cl)c1          0.9150
5         O=C(COc1ccccc1)NNC(=S)Nc1ccccc1Cl          0.5523
6           O=C(COc1ccccc1)NNC(=S)Nc1ccccc1          0.4018
7     O=C(COc1ccccc1)NNC(=S)Nc1ccc(Cl)cc1Cl          0.5886
8       CSc1ccc(NC(=S)NNC(=O)COc2ccccc2)cc1          0.6672
9       O=C(COc1ccccc1)NNC(=S)Nc1ccc(Cl)cc1          0.5075

---

Listed next: entries and their corresponding Log k IAM.
assay: HPLC lipophilicity on IAM (immobilized artificial membrane, phosphatidylcholine) stationary phase
Type: physicochemical
assay setup: Table S2; ACN 0.20 v/v in mobile phase, pH 7.4
measured property: Log k IAM

In [3]: df
Out[3]:
                               record_smiles  value_measured
 0     O=C(COc1ccccc1)NNC(=S)Nc1ccc(Cl)cc1Cl           0.870
 1        O=C(COc1ccccc1)NNC(=S)Nc1ccc(F)cc1           0.088
 2           O=C(COc1ccccc1)NNC(=S)Nc1ccccc1           0.085
 3       O=C(COc1ccccc1)NNC(=S)Nc1ccc(Cl)cc1           0.673
 4       O=C(COc1ccccc1)NNC(=S)Nc1ccc(Br)cc1           0.792
 5          O=C(COc1ccccc1)NNC(=S)Nc1ccccc1I           0.642
 6       O=C(COc1ccccc1)NNC(=S)Nc1cccc(Cl)c1           0.647
 7         O=C(COc1ccccc1)NNC(=S)Nc1ccccc1Cl           0.515
 8     O=C(COc1ccccc1)NNC(=S)Nc1cccc2ccccc12           0.533
 9        O=C(COc1ccccc1)NNC(=S)Nc1ccc(I)cc1           0.951
10        O=C(COc1ccccc1)NNC(=S)Nc1cccc(I)c1           0.952
11  O=C(COc1ccccc1)NNC(=S)Nc1ccc([N+](=O)[O-])cc1           0.253
12        O=C(COc1ccccc1)NNC(=S)Nc1cccc(F)c1           0.312
13       CSc1ccc(NC(=S)NNC(=O)COc2ccccc2)cc1           0.513
14   O=C(COc1ccccc1)NNC(=S)Nc1ccc(Cl)c(Cl)c1           1.032
15     O=C(COc1ccccc1)NNC(=S)Nc1cc(Cl)ccc1Cl           1.133
16          O=C(COc1ccccc1)NNC(=S)Nc1ccccc1F           0.234
17       O=C(COc1ccccc1)NNC(=S)Nc1cccc(Br)c1           0.777

---

Tested on: α1-acid glycoprotein (AGP)
assay: HPLC on immobilized AGP column, affinity and % plasma–protein binding
Format: in vitro ADME, human
assay setup: binding equilibrium constant from calibration curve (Equation 9) of log k AGP
Listed next: entries and their corresponding log K AGP.
measured property: log K AGP

                           record_smiles  value_measured
0       O=C(COc1ccccc1)NNC(=S)Nc1ccccc1F          0.3986
1    O=C(COc1ccccc1)NNC(=S)Nc1ccc(Br)cc1          0.6344
2     O=C(COc1ccccc1)NNC(=S)Nc1ccc(I)cc1          0.8378
3     O=C(COc1ccccc1)NNC(=S)Nc1ccc(F)cc1          0.3891
4       O=C(COc1ccccc1)NNC(=S)Nc1ccccc1I          0.6707
5     O=C(COc1ccccc1)NNC(=S)Nc1cccc(F)c1          0.5586
6  O=C(COc1ccccc1)NNC(=S)Nc1cccc2ccccc12          0.7514
7    O=C(COc1ccccc1)NNC(=S)Nc1cccc(Br)c1          0.6968

---

Listed next: entries and their corresponding Log k Chol.
assay: HPLC lipophilicity on cholesterol (Chol) stationary phase
Assay type: physicochemical
assay setup: Table S3; MeOH 0.40 v/v in mobile phase, pH 7.4
measured property: Log k Chol

>>> df
                         record_smiles  value_measured
0   O=C(COc1ccccc1)NNC(=S)Nc1cccc(I)c1           1.443
1   O=C(COc1ccccc1)NNC(=S)Nc1cccc(F)c1           0.699
2     O=C(COc1ccccc1)NNC(=S)Nc1ccccc1I           0.747
3  O=C(COc1ccccc1)NNC(=S)Nc1ccc(Cl)cc1           1.050
4  O=C(COc1ccccc1)NNC(=S)Nc1cccc(Cl)c1           1.016

Reference source for all entries: paper PMC10608985
